pIC50 values recorded for UniProt:P0AD64
pIC50: −log10 of the molar value.

{"molecule": "NC(=O)c1ccn(C2=CC3CN(C2)C(=O)N3OS(=O)(=O)[O-])n1.[Na+] (centres unmarked) [Example 19]", "pIC50": 8.74}
{"molecule": "O=C(Nc1ccn(C2=CC3CN(C2)C(=O)N3OS(=O)(=O)O)n1)c1cncs1 (centres unmarked) [Example 77]", "pIC50": 8.28}
{"molecule": "CC(=O)c1ccn(C2=CC3CN(C2)C(=O)N3OS(=O)(=O)[O-])n1.[Na+] (centres unmarked) [Example 28, sulfate]", "pIC50": 8.66}
{"molecule": "NCCNC(=O)c1cnn(C2=CC3CN(C2)C(=O)N3OS(=O)(=O)O)c1 (centres unmarked) [Example 38]", "pIC50": 8.60}
{"molecule": "O=C1N2CC(n3nccc3CCO)=CC(C2)N1OS(=O)(=O)[O-].[Na+] (centres unmarked) [Example 68]", "pIC50": 8.55}
{"molecule": "O=C(Nc1ccn(C2=CC3CN(C2)C(=O)N3OS(=O)(=O)[O-])n1)c1nccs1.[Na+] (centres unmarked) [Example 34]", "pIC50": 8.51}
{"molecule": "N#Cc1cnn(C2=CC3CN(C2)C(=O)N3OS(=O)(=O)[O-])c1.[Na+] (centres unmarked) [Example 8]", "pIC50": 8.60}
{"molecule": "CC(=O)c1cnn(C2=CC3CN(C2)C(=O)N3OS(=O)(=O)[O-])c1.[Na+] (centres unmarked) [Example 40]", "pIC50": 8.74}

---

Examples of compounds with documented pIC50 follow.
Molecular target: OXA-15 (Pseudomonas aeruginosa)
Sequence (Q51574 22-275): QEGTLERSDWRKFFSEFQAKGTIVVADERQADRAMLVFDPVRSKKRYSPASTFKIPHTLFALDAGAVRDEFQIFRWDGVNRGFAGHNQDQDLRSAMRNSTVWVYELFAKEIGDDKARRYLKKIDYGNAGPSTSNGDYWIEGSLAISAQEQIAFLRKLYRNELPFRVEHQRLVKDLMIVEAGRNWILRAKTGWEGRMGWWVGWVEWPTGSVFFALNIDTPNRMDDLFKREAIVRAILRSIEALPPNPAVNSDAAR
Details: read-out: IC50 β-lactamase OXA-15; class (D); nitrocefin 200 μM, 30-min pre-incubation, enzyme 0.4 nM
pIC50: −log10 of the molar value.
measured.property: pIC50

{"compound": "O=C1N2CC(n3cc(S(=O)(=O)NCCO)cn3)=CC(C2)N1OS(=O)(=O)[O-].[Na+] (centres unmarked)", "measured.property": "pIC50", "measurement": 7.32}
{"compound": "NCCNC(=O)Cc1ccn(C2=CC3CN(C2)C(=O)N3OS(=O)(=O)[O-])n1.O=C(O)C(F)(F)F.[Na+] (centres unmarked)", "measured.property": "pIC50", "measurement": 6.29}
{"compound": "N#Cc1ccn(C2=CC3CN(C2)C(=O)N3OS(=O)(=O)[O-])n1.[Na+] (centres unmarked)", "measured.property": "pIC50", "measurement": 7.52}
{"compound": "CN(C)Cc1cn(C2=CC3CN(C2)C(=O)N3OS(=O)(=O)[O-])nn1.[Na+] (centres unmarked)", "measured.property": "pIC50", "measurement": 8.18}
{"compound": "CC(=O)Nc1ccn(C2=CC3CN(C2)C(=O)N3OS(=O)(=O)O)n1.CCN(CC)CC (centres unmarked)", "measured.property": "pIC50", "measurement": 7.36}
{"compound": "O=C1N2CC(n3cc(N4CCOCC4)cn3)=CC(C2)N1OS(=O)(=O)[O-].[Na+] (centres unmarked)", "measured.property": "pIC50", "measurement": 6.85}
{"compound": "O=C1N2CC(n3ccnn3)=CC(C2)N1OS(=O)(=O)[O-].[Na+] (centres unmarked)", "measured.property": "pIC50", "measurement": 7.40}
{"compound": "O=C([O-])Cc1cn(C2=CC3CN(C2)C(=O)N3OS(=O)(=O)[O-])nn1.[Na+].[Na+] (centres unmarked)", "measured.property": "pIC50", "measurement": 7.72}

---

Test system: E. coli 190317
Assay: MIC of compound alone, broth microdilution
Type: cell-based
Conditions: Escherichia coli; strain 190317; compound alone; read-out: MIC compounds of the invention alone
measured.property: MIC (mg/L)

{"molecule": "NC(=O)CNCc1cn(C2=CC3CN(C2)C(=O)N3OS(=O)(=O)O)nn1 (stereo not shown) [Example 66]", "readout.qualifier": "=", "measurement": 4}
{"molecule": "O=C1N2CC(n3ncnn3)=CC(C2)N1OS(=O)(=O)[O-].[Na+] (stereo not shown) [Example 44]", "readout.qualifier": "=", "measurement": 1}
{"molecule": "[2H]c1nn(C2=CC3CN(C2)C(=O)N3OS(=O)(=O)[O-])c([2H])c1[2H].[Na+] (stereo not shown) [Example 43]", "readout.qualifier": "=", "measurement": 1}
{"molecule": "O=C1N2CC(n3ccc([C@H](O)CO)n3)=CC(C2)N1OS(=O)(=O)[O-].[Na+] (stereo partly shown) [Example 76]", "readout.qualifier": "=", "measurement": 8}
{"molecule": "NS(=O)(=O)c1cnn(C2=CC3CN(C2)C(=O)N3OS(=O)(=O)[O-])c1.[Na+] (stereo not shown) [Example 16]", "readout.qualifier": "=", "measurement": 8}
{"molecule": "COc1cnn(C2=CC3CN(C2)C(=O)N3OS(=O)(=O)[O-])c1.[Na+] (stereo not shown) [Example 9]", "readout.qualifier": ">", "measurement": 32}
{"molecule": "O=C(Nc1ccn(C2=CC3CN(C2)C(=O)N3OS(=O)(=O)[O-])n1)c1nccs1.[Na+] (stereo not shown) [Example 34]", "readout.qualifier": ">", "measurement": 32}

---

Tested on: P. aeruginosa CIP107051
Assay: MIC of ceftazidime (CAZ) at fixed concentration of compound (synergy), broth microdilution
Format: cell-based
Conditions: strain CIP107051; MIC of CAZ, compound fixed at 4 μg/mL
measured.property: MIC combination of CAZ and compounds of the invention at 4 μg/mL

{"compound": "NC(=O)c1cc(F)n(C2=CC3CN(C2)C(=O)N3OS(=O)(=O)[O-])n1.[Na+] (stereo not drawn)", "measurement": "16 µg/mL"}
{"compound": "O=C(O)C(F)(F)F.O=C1N2CC(n3ccc(CNc4nccs4)n3)=CC(C2)N1OS(=O)(=O)[O-].[Na+] (stereo not drawn)", "measurement": "16 µg/mL"}
{"compound": "NCCNC(=O)Cc1ccn(C2=CC3CN(C2)C(=O)N3OS(=O)(=O)[O-])n1.O=C(O)C(F)(F)F.[Na+] (stereo not drawn)", "measurement": "4 µg/mL"}
{"compound": "C/C(=N/O)c1cnn(C2=CC3CN(C2)C(=O)N3OS(=O)(=O)[O-])c1.[Na+] (stereo not drawn)", "measurement": "8 µg/mL"}
{"compound": "NCc1cnn(C2=CC3CN(C2)C(=O)N3OS(=O)(=O)[O-])c1.O=C(O)C(F)(F)F.[Na+] (stereo not drawn)", "measurement": "2 µg/mL"}
{"compound": "CN(C)Cc1cn(C2=CC3CN(C2)C(=O)N3OS(=O)(=O)[O-])nn1.[Na+] (stereo not drawn)", "measurement": "8 µg/mL"}

---

Recorded IC50 values (KPC-2 (Klebsiella pneumoniae)) are given below.

{"compound": "O=C1N2CC(n3ccc(F)n3)=CC(C2)N1OS(=O)(=O)[O-].[Na+] (centres unmarked)", "IC50": "13 nM"}
{"compound": "CC(=NOCCN)c1ccn(C2=CC3CN(C2)C(=O)N3OS(=O)(=O)O)n1 (mixture of isomers)", "IC50": "8.7 nM"}
{"compound": "O=C1N2CC(n3ccsc3=O)=CC(C2)N1OS(=O)(=O)[O-].[Na+] (centres unmarked)", "IC50": "13 nM"}
{"compound": "NC(=O)c1ccn(C2=CC3CN(C2)C(=O)N3OS(=O)(=O)[O-])n1.[Na+] (centres unmarked)", "IC50": "6.2 nM"}
{"compound": "O=C1N2CC(n3cc(F)cn3)=CC(C2)N1OS(=O)(=O)[O-].[Na+] (centres unmarked) [Example 14, sulfate]", "IC50": "17 nM"}
{"compound": "O=C1N2CC(n3cncn3)=CC(C2)N1OS(=O)(=O)[O-].[Na+] (centres unmarked)", "IC50": "3 nM"}
{"compound": "NCCNC(=O)c1cnn(C2=CC3CN(C2)C(=O)N3OS(=O)(=O)O)c1 (centres unmarked)", "IC50": "7.5 nM"}
{"compound": "O=C(Nc1cc[nH]n1)c1ccn(C2=CC3CN(C2)C(=O)N3OS(=O)(=O)[O-])n1.[Na+] (centres unmarked)", "IC50": "3.4 nM"}
{"compound": "CC(=O)c1ccn(C2=CC3CN(C2)C(=O)N3OS(=O)(=O)[O-])n1.[Na+] (centres unmarked) [Example 28, sulfate]", "IC50": "4.8 nM"}
{"compound": "O=C1N2CC(n3cc(CO)nn3)=CC(C2)N1OS(=O)(=O)O (centres unmarked)", "IC50": "7 nM"}
{"compound": "NC(=O)c1cnn(C2=CC3CN(C2)C(=O)N3OS(=O)(=O)[O-])c1.[Na+] (centres unmarked)", "IC50": "12 nM"}
{"compound": "O=C(NOCCO)c1ccn(C2=CC3CN(C2)C(=O)N3OS(=O)(=O)[O-])n1.[Na+] (centres unmarked)", "IC50": "12 nM"}
{"compound": "NCCc1ccn(C2=CC3CN(C2)C(=O)N3OS(=O)(=O)O)n1 (centres unmarked)", "IC50": "50 nM"}
{"compound": "O=C(NCCO)c1ccn(C2=CC3CN(C2)C(=O)N3OS(=O)(=O)[O-])n1.[Na+] (centres unmarked)", "IC50": "12 nM"}
{"compound": "NS(=O)(=O)c1cnn(C2=CC3CN(C2)C(=O)N3OS(=O)(=O)[O-])c1.[Na+] (centres unmarked)", "IC50": "4.6 nM"}
{"compound": "O=C(Nc1ncns1)c1ccn(C2=CC3CN(C2)C(=O)N3OS(=O)(=O)O)n1 (centres unmarked)", "IC50": "4.4 nM"}
{"compound": "O=C1N2CC(n3ccc([C@H](O)CO)n3)=CC(C2)N1OS(=O)(=O)[O-].[Na+] (some centres unmarked)", "IC50": "73 nM"}

Value source: patent US10722520B2
